Values compiled from patent US8951999B2.

biological target: recombinant human mPGES-1 (Homo sapiens, UniProt O14684); assay: Assay B: mPGES-1 enzyme assay (modified); type: biochemical; settings: biological assay B (all other compounds); PGH2 final conc. 2 μM, HTRF; read-out: mPGES-1 inhibitory effect IC50
Sequence (O14684 whole entry): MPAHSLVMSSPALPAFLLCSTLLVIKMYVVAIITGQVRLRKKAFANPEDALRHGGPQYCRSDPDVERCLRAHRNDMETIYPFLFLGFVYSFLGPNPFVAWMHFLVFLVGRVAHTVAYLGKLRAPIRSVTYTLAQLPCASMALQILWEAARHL
Endpoint: IC50 (nM)

| Compound | IC50 / nM |
| --- | --- |
| CC(C)(C(=O)NCc1ccc(Cl)c(C(=O)Nc2ccc(OCC(F)F)c(C(=O)NCC3CC3)c2)c1Cl)C(F)(F)F | 11 |
| CC(C)(C)C(=O)NCc1ccc(Cl)c(C(=O)Nc2ccc(N3CCC(F)(F)C3)c(C(=O)Nc3ccc(Br)cc3)c2)c1Cl | 4 |
| CC(NC(=O)c1cc(NC(=O)c2cc(CNC(=O)C(C)(C)C(F)(F)F)ccc2Cl)ccc1OCC(F)F)C1CC1 (stereo not drawn) | 7 |
| CC(C)(C(=O)NCc1ccc(Cl)c(C(=O)Nc2ccc(OCC(F)F)c(C(=O)Nc3ccc(Cl)c(C(F)(F)F)c3)c2)c1)C(F)(F)F | 4 |

P = CC(C)(C(=O)NCc1ccc(Cl)c(C(=O)Nc2ccc(OCC(F)F)c(C(=O)Nc3ccc(F)c(Cl)c3)c2)c1)C(F)(F)F
Q = CC(C)(C(=O)NCc1ccc(Cl)c(C(=O)Nc2ccc(OCC(F)F)c(C(=O)NCCCC(F)(F)F)c2)c1)C(F)(F)F
Of P and Q , which one carries the higher reported IC50? The response must carry the label of the picked entry. Q
(Q: 11 nM, P: 5 nM)
